Where do these numbers come from? They come from patent US4410716A.

Tested on: edema (carrageenin, hind paw)
Test: Anti-inflammatory activity: carrageenin hind paw edema in rats, oral administration
Format: in vivo, male Donryu rats
Conditions: Rattus norvegicus; 100 mg/kg oral; 1 hour after carrageenin; read-out: Percent edema inhibition
Label label 0 if inhibition in vivo at 100 mg/kg falls below 30%; label label 1 in every other case.

[[record]]
compound = "O=C(O)Cc1ccc2c(c1)Cc1ccccc1CC2=O [Ic]"
cat = "label 1"

[[record]]
compound = "O=C(O)Cc1ccc2c(c1)C(=O)Cc1ccccc1C2 [Ia]"
cat = "label 1"

[[record]]
compound = "COC1=Cc2ccccc2Cc2ccc(CC(=O)O)cc21 [Ig]"
cat = "label 0"

[[record]]
compound = "O=C(O)Cc1ccc2c(c1)Cc1ccccc1C(=O)C2 [If]"
cat = "label 0"

[[record]]
compound = "O=C(O)Cc1ccc2c(c1)CC(=O)c1ccccc1C2 [Id]"
cat = "label 1"

[[record]]
compound = "O=C(O)Cc1ccc2c(c1)CC(=O)c1cc(Cl)ccc1C2 [Ie]"
cat = "label 0"

[[record]]
compound = "O=C(O)Cc1ccc2c(c1)C(=O)Cc1cc(F)ccc1C2 [Ib]"
cat = "label 1"


----------
Assay: in vivo
Details: rat, in vivo, po
endpoint: selectivity ratio

[[record]]
molecule = "COc1ccc2c(c1)c(CC(=O)O)c(C)n2C(=O)c1ccc(Cl)cc1 [Indomethacin, reference compound]"
endpoint = "selectivity ratio"
result_value = 1.2

[[record]]
molecule = "CC(C(=O)O)c1ccc2c(c1)C(=O)Cc1ccccc1C2 (centres unmarked)"
endpoint = "selectivity ratio"
result_value = 7.9

